- Tested on: KM12
- assay: NCI tumour cell line growth inhibition, 48 h
Active and inactive are the calls of the source. Rule as the data show it: active = GI50 up to about 1.1 µM and inactive = higher.
propertyMeasured: GI50

Form field: reported GI50 of O=C1/C(=C/c2ccc(O)cc2)CCCC1CN1CCCCC1 (stereo not given)
1.64 µM (inactive)

What value of GI50 has been recorded for this entry: Cc1nn(C(=O)Cc2ccccc2)c2c1C(c1ccc(O)cc1)SC(=N)N2 (stereo not given)
> 100 µM (inactive)

Recorded GI50 for CCOC(=O)C1C=C1C(C)(C)O (stereo not given) , please?
> 10 µM (inactive)

Tell me the measured GI50 of CCCCCCCCc1cc2c(O)c(c1)Cc1cc(CCCCCCCC)cc(c1O)Cc1cc(CCCCCCCC)cc(c1O)Cc1cc(CCCCCCCC)cc(c1O)Cc1cc(CCCCCCCC)cc(c1O)Cc1cc(CCCCCCCC)cc(c1O)C2 , please.
> 100 µM (inactive)

Suppose we examine the molecule CC(=O)C1=CN=C2C(=O)N(c3ccccc3)N(C)C12C (stereo not given) ; what GI50 value has been reported?
3.08 µM (inactive)

For the molecule shown here, CC(=O)OCc1cccc(O)c1C(=O)CCC=C(C)C , give the reported GI50.
> 100 µM (inactive)

Entry under review: C#C[C@@]1(O)CCCC2=CC(=O)C[C@]21C . Reported GI50?
> 100 µM (inactive)

I have this molecule here, Oc1cc2cc(O)nc(O)c2c(O)n1 , and I need its recorded GI50.
> 100 µM (inactive)

Consider the molecule O=C(c1cc(Cl)ccc1Cl)N1CCN(C(=O)c2cc(Cl)ccc2Cl)CC1 and give its measured GI50.
> 100 µM (inactive)

# query: GI50 of entry O=C1CCC2(c3ccc(F)cc3)Nc3cc(Cl)ccc3N12 (stereo not given)
> 100 µM (inactive)

----------
- System: HCC 2998
- assay: NCI tumour cell line growth inhibition, 48 h
The source made the active and inactive calls. Cut-off read from the data, not from the text of the source: active = GI50 up to about 1.1 µM and inactive = higher.
propertyMeasured: GI50

So what's the measured GI50 for this one? Nc1nc(Cl)cc(OCC2(CO)CCCC2)n1
> 100 µM (inactive)

Please look up its GI50: CNC(=S)/N=c1/sc(NC)nc2sc3c(c12)CCCC3
> 100 µM (inactive)

Reported GI50 for CCN(CC)CCNc1ccc2ncn3c4c(OC)ccc(O)c4c(=O)c1c23 : what is it?
5.25 µM (inactive)

Fill blank: measured GI50 of the compound CCOC(=O)/C(I)=C/c1cc(OC)c(OC)c(OC)c1 is ____.
14.2 µM (inactive)

For C1=N\CCNCC/N=C/c2ccccc2OCc2cccc(n2)COc2ccccc2/1 , what is its reported GI50?
19.5 µM (inactive)

Entry O=C(O)c1ccccc1[Se][Se]c1ccccc1C(=O)O : reported GI50 = ?
89.7 µM (inactive)

----------
- Test system: U-251
- assay: NCI tumour cell line growth inhibition, 48 h
Calls of active or inactive are those of the source. Cut-off read from the data, not from the text of the source: active = GI50 up to about 1.1 µM and inactive = higher.
Provide the recorded GI50 for the entries that follow.

Please look up its GI50: CC(C)(C)OC(=O)N(O)CCCn1cnc2c(N)ncnc21
> 100 µM (inactive)

GET /values?readout=GI50&item= CC1(C)OC[C@@H](C[C@H](O)COCc2ccccc2)O1
> 100 µM (inactive)

Need GI50 of O=c1oc(-c2ccccc2)c(-c2ccccc2)n1-c1ccc(Br)cc1 , thanks.
24.2 µM (inactive)

So what does the record say about GI50 for CCOc1cn(C2OC(CO)C(O)C2O)c(=O)[nH]c1=O (stereo unspecified) ?
20.3 µM (inactive)

Look at this molecule and give its reported GI50. CCC1(CC)CC(=NNS(=O)(=O)c2ccc(C)cc2)C1
> 100 µM (inactive)

Please look up its GI50: CC(C)CCC[C@@H](C)C1CCC2[C@@H]3CCC4C[C@@H](NS(C)(=O)=O)CC[C@]4(C)C3CC[C@@]21C (stereo partly specified)
> 100 µM (inactive)

// returns reported GI50 for input O=C1CC2(CCN(Cc3ccccc3)CC2)C(=O)N1N1CCCCC1
> 100 µM (inactive)

Returns the measured GI50 for the input molecule. Input: C#C[C@@]1(O)CCCC2=CC(=O)C[C@]21C
> 100 µM (inactive)

Returns the measured GI50 for the input molecule. Input: CCOC(=O)c1c(SCC#N)n(-c2ccccc2)c(=S)n(-c2ccccc2)c1=O
33 µM (inactive)

Any idea what GI50 was measured for O=S(=O)(O)c1ccc2c(/N=N\c3ccc(F)cc3)c(O)c(S(=O)(=O)O)cc2c1 ?
> 100 µM (inactive)

Given the molecule C=CCC(OCCOCC)c1cc(OCCOCC)ccc1OC (stereo unspecified) , what is its reported GI50?
> 100 µM (inactive)

Hello, the source for this data is ChEMBL document CHEMBL1201862, in case you need it.
